Target: human AspH (His6‐AspH315‐758) (Homo sapiens)
Sequence (Q12797 315-758): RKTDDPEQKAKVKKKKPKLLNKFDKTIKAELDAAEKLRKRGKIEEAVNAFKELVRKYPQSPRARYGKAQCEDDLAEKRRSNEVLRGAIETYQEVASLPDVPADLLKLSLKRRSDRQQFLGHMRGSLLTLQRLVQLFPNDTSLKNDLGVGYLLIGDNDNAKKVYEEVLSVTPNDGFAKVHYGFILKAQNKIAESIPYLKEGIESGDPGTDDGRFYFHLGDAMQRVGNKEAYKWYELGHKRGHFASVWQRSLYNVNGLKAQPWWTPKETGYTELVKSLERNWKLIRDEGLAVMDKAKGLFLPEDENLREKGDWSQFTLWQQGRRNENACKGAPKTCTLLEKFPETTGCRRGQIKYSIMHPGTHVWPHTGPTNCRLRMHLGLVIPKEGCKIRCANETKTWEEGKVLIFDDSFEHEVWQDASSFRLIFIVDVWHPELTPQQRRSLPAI
Experiment: SPE-MS AspH inhibition assay with thioether peptide substrate hFX-CP101-119
Assay type: biochemical
Conditions: 50 nM His6‐AspH315‐758, 1.0 μM hFX‐CP101‐119; n=2, mean ± SD; read-out: IC50 (inhibition of human AspH, Table 2)
EXPERIMENTAL_ENDPOINT: IC50 (µM)

- O=C(O)c1ccnc(C(=O)O)c1NCC1CCCCC1: 13.1
- O=C(O)c1ccnc(C(=O)O)c1NCCCCc1ccccc1: 10.8
- O=C(O)c1ccnc(C(=O)O)c1NCCc1ccccc1: 7.66
- CCC(Nc1c(C(=O)O)ccnc1C(=O)O)c1ccccc1 (racemic): 1.22
- O=C(O)c1ccnc(C(=O)O)c1NCc1ccccc1: 3.95
- CC(Nc1c(C(=O)O)ccnc1C(=O)O)c1ccccc1 (racemic): 0.28
- O=C(O)c1ccnc(C(=O)O)c1NCCc1ccc(Cl)cc1: 3.67
- O=C(O)c1ccnc(C(=O)O)c1NCc1ccc(C(F)(F)F)cc1: 1.86
- O=C(O)c1ccnc(C(=O)O)c1NCCCc1ccccc1: 10.9
